Test system: MDA-MB-435
EXPERIMENT NOTES: NCI tumour cell line growth inhibition, 48 h
Active and inactive are the calls of the source. Rule as the data show it: active = GI50 up to about 1.1 µM and inactive = higher.
Thanks in advance; please answer with one of these: active, inactive

Query: What did the test return for `CCN1CN(c2ccccc2)C2(CCN(CCCSc3ccc(F)cc3)CC2)C1=O` ?
Reply: inactive

Query: # fetch the recorded call for `Cn1cnc(C(N)=[Se])c1N` here
Reply: inactive

Query: Dear colleague, could you share the recorded outcome for CC(C)c1cccc(C(C)C)c1NC(=O)/C(CC(=O)CC(c1ccccc1)c1c(O)c2ccccc2oc1=O)=N/O (centres undefined) when you have a moment?
Reply: inactive

Query: Called result for CC(=O)NC1C(OCc2ccccc2)OC(CO)C(O)C1OC(C)C(=O)NC(C)C(=O)NC(CCC(=O)NCCCCNc1c2ccccc2nc2cccc([N+](=O)[O-])c12)C(N)=O (centres undefined)
Reply: active
